- System: Mus musculus
- assayDetails: Cmax in mouse at 50 mg/kg, po administered as single dose measured 24 hrs post dose by liquid chromatography/tandem mass spectrometric analysis
- Format: ADME, organism-based
- Design: dose 50 mg/kg, route oral
- conditionNotes: in vivo
Below, each entry is listed alongside its reported Cmax.
testReadout: Cmax (nM)

COc1cc(N2C(=O)CN(Cc3ccc(F)cc3Cl)C2=S)ccc1N(C)C; 2500
CN(C)c1ccc(N2C(=O)CN(Cc3ccc(F)cc3)C2=S)cc1Cl; 2100

###

- assayDetails: Cytotoxicity against human CRL8155 cells assessed as growth inhibition after 48 hrs by Alamar blue assay
- Format: cell-based
testReadout: CC50

COc1cc(N2C(=O)CN(Cc3ccc(F)cc3)C2=S)ccc1N(C)C; > 50 µM
O=C1CN(Cc2ccc(F)cc2Cl)C(=S)N1c1ccc(N2CCCC2)c(Cl)c1; > 50 µM
COc1cc(F)ccc1CN1CC(=O)N(c2ccc(OC)c(OC)c2)C1=S; > 50 µM
COc1cc(N2C(=O)CN(Cc3ccc(F)cc3Cl)C2=S)ccc1N(C)C; > 50 µM
COc1cc(N2C(=O)CN(Cc3ccc(F)c(F)c3)C2=S)ccc1N(C)C; > 50 µM
COc1ccc(N2C(=O)CN(Cc3ccc(F)cc3)C2=S)cc1OC; > 50 µM
O=C1CN(Cc2ccc(F)cc2)C(=S)N1c1ccc(N2CCCC2)c(Cl)c1; > 50 µM
COc1cc(F)ccc1CN1CC(=O)N(c2ccc(N(C)C)c(Cl)c2)C1=S; 12.6 µM
CN(C)c1ccc(N2C(=O)CN(Cc3ccc(F)cc3C(F)(F)F)C2=S)cc1Cl; > 50 µM
CN(C)c1ccc(N2C(=O)CN(Cc3ccc(F)cc3Cl)C2=S)cc1F; > 50 µM

###

- assayDetails: Cytotoxicity against human CRL8155 cells assessed as growth inhibition after 48 hrs by Alamar blue assay
- Assay type: cell-based
testReadout: CC50 (µM)

CCN(CC)CCCC(C)Nc1c2ccc(Cl)cc2nc2ccc(OC)cc12 (configuration not stated); 2.34
CN(C)c1ccc(N2C(=O)CN(Cc3ccc(F)cc3)C2=S)cc1Cl; 39
COc1ccc(N2C(=O)CN(Cc3ccc(F)cc3Cl)C2=S)cc1OC; 36.8

###

- Tested on: Trypanosoma brucei brucei
- assayDetails: Antitrypanosomal activity against Trypanosoma brucei brucei BF427 measured after 48 hrs by Alamar blue assay
- Assay type: functional, organism-based
- conditionNotes: BF427, 48 h
testReadout: log10 of EC50 (log10 of the value in nM)

COc1ccc(N2C(=O)CN(Cc3ccccc3)C2=S)cc1OC; 2.21
COc1ccc(N2C(=O)CN(Cc3ccc(F)cc3C(F)(F)F)C2=S)cc1Cl; 2.97
COc1ccc(N2C(=O)CN(Cc3ccc(F)cc3)C2=S)cc1OC; 1.69
CN(C)c1ccc(N2C(=O)CN(Cc3ccccc3)C2=S)cc1F; 2.10
CN(C)c1ccc(N2C(=O)CN(Cc3ccccc3)C2=S)cc1; 3.18
COc1ccc(N2C(=O)CN(Cc3ccccc3)C2=S)c(OC)c1; 2.80
N=C(N)c1ccc(OCCCCCOc2ccc(C(=N)N)cc2)cc1; 0.06
COc1ccc(N2C(=O)CN(Cc3ccccc3)C2=S)cc1Cl; 2.54
CN(C)c1ccc(N2C(=O)CN(Cc3ccc(F)cc3Cl)C2=S)cc1Cl; 0.30
COc1ccc(N2C(=O)CN(Cc3cccc(F)c3)C2=S)cc1Cl; 2.99
CN(C)c1ccc(N2C(=O)CN(Cc3ccc(F)cc3Cl)C2=S)cc1F; 1.18
COc1cc(N2C(=O)CN(Cc3ccc(F)cc3[N+](=O)[O-])C2=S)ccc1N(C)C; 1.64
CN(C)c1ccc(N2C(=O)CN(Cc3ccc(F)cc3C(F)(F)F)C2=S)cc1Cl; 1.34
COc1ccc(N2C(=O)CN(Cc3ccc(F)cc3Cl)C2=S)cc1OC; 1.15
COc1cc(N2C(=O)CN(Cc3ccc(F)cc3F)C2=S)ccc1N(C)C; 0.78
COc1ccc(N2C(=O)CN(Cc3ccc(F)cc3OC)C2=S)cc1Cl; 2.28
COc1cc(N2C(=O)CN(Cc3ccccc3)C2=S)ccc1N(C)C; 1.11

The origin of these recorded values is ChEMBL document CHEMBL4190338.
